Test system: PPARg homodimer (NR concentration 180 nM)
Assay: PBM binding z-score (relative to random genomic background probes); higher = stronger binding; sequences stand for … in GC…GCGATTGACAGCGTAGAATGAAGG
recordedMetric: PBM binding z-score
Numbers only.

Before answering, review these 6 worked examples.
• AGAATGAGGTTATACGTAGATCAGCGAAGAAAGT = 1.02
• ATCTCTAGGTAAGACTGAGTTCAGTGAAGAACGC = 0.874
• CCTACTGGACCAAAGGTCATTGATTCCAATGCTC = 3.81
• CGAACTAGGTCGTTGACAGGACAGTGAATAGTAA = 0.203
• CGTCAAAGTTCAACTAAGATAACGTAAAGCACGC = 4.35
• CAAACTAGGTCCCCGGAAGGTCAAAGTCCGCATG = 3.1

Hi there! I need PBM binding z-score for each item below, if you can.
1. CCGAGTGGGGCATAAGGTTACCATAAGCCAGCCC
2. ACTAGCAGGCCAAGTTTAGGTCACTCAAACAAAG
3. AGTCAAAGTCCACTAGGTAACGTAAGATTCAGCT
4. CAAACTAGGTCACGGGAAGGTCAAAGTCCGCATG
5. ATAAGTAGGTTATCGGGTCATTCAGTTTGCGCAT

0.587
0.824
0.527
5.61
3.5

Hi there! I need PBM binding z-score for each item below, if you can.
1. GCTGCTAGGTGAACTGATGGTCAGCTAAAGCTCG
2. CATCCAAGGTCAAGGTCAGTGAAAGAGACTCGAA
3. CCGACTGGGGCAGAAAAGTTACCATACCATCCGG
4. TCTAGCACGCCAGAGGGTCACTCAAGAGGTACGG
5. GATACAGGGTCAGCTAGAGGCGAGAGTATGGAAA
6. ATTCAAAGTTCAGGACGAGGTAACGTAAAGCACG
7. ACAGACTGGTGATGAAGGTAACTCAGGCTATCAT
8. TCGCGTAGGTTAGTCGGGGCATTCAGCCAACATA

-0.326
4.53
0.0393
0.566
1.77
1.93
-0.6
-0.58

Each recorded value in this set is attributed to the supplement of paper PMC6555819.
